B1: H2-Kb / G2 (parent)
chain 1: GEQVEQRPPHLSVREGDSAVIICTYTDPNSYYFFWYKQEPGAGLQLLMKVFSSTEINEGQGFTVLLNKKDKQLSLNLTAAHPGDSAVYFCAVRTNQGGRALIFGTGTTVSVSP
chain 2: EAAVTQSPRSKVAVTGGKVTLSCHQTNNHDYMYWYRQDTGHGLRLIHYSYVADSTEKGDIPDGYKASRPSQENFSLILELASLSQTAVYFCASSGTDTEVFFGKGTRLTVV
chain 3: not shown
chain 4: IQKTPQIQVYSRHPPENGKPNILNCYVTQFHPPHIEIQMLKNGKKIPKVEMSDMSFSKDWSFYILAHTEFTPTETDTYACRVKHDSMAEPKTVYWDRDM
chain 5: SIINFEKL

# Variants of: B1
# Method Notes: % of reporter cells activated (NFAT-GFP), raw; note: test concentration or dose not given here
# Condition: with G2; scale: % of reporter cells activated
Property Name: ratio to parent

>>> value_reported("chain 5 L8S")
1.15
>>> value_reported("chain 5 S1I")
1.45
>>> value_reported("chain 5 I2C")
1.06
>>> value_reported("chain 5 L8Y")
0.744
>>> value_reported("chain 5 I3C")
1.38
>>> value_reported("chain 5 N4I")
1.13
>>> value_reported("chain 5 I3A")
1.42
>>> value_reported("chain 5 I2S")
1.32
>>> value_reported("chain 5 F5N")
0.984
>>> value_reported("chain 5 E6L")
1.08
>>> value_reported("chain 5 L8H")
1.78
>>> value_reported("chain 5 L8T")
0.944
>>> value_reported("chain 5 F5T")
1.06
>>> value_reported("chain 5 F5Y")
1.62
>>> value_reported("chain 5 S1N")
1.55
>>> value_reported("chain 5 L8E")
0.696
>>> value_reported("chain 5 S1A")
1.7
>>> value_reported("chain 5 E6G")
1.29
>>> value_reported("chain 5 F5S")
0.88
>>> value_reported("chain 5 I3W")
1.3
>>> value_reported("chain 5 N4R")
0.952
>>> value_reported("chain 5 K7C")
1.88
>>> value_reported("chain 5 L8V")
1.32
>>> value_reported("chain 5 E6F")
1.36
>>> value_reported("chain 5 S1C")
1.31
>>> value_reported("chain 5 K7G")
0.936
>>> value_reported("chain 5 S1G")
1.47
>>> value_reported("chain 5 N4H")
1.38
>>> value_reported("chain 5 N4L")
1.54
>>> value_reported("chain 5 I3K")
1.5
>>> value_reported("chain 5 E6A")
1.9
>>> value_reported("chain 5 N4K")
1.74
>>> value_reported("chain 5 I3V")
0.968
>>> value_reported("chain 5 L8P")
1.24
>>> value_reported("chain 5 S1K")
1.58
>>> value_reported("chain 5 E6P")
1.53
>>> value_reported("chain 5 L8N")
1.54
>>> value_reported("chain 5 S1M")
1.6
>>> value_reported("chain 5 N4V")
1.26
>>> value_reported("chain 5 I3S")
0.936
>>> value_reported("chain 5 S1L")
1.73
>>> value_reported("chain 5 E6C")
1.18
>>> value_reported("chain 5 E6Q")
1.41
>>> value_reported("chain 5 E6I")
1.02
>>> value_reported("chain 5 L8Q")
1.05
>>> value_reported("chain 5 I3G")
1.39
>>> value_reported("chain 5 E6S")
1.01
>>> value_reported("chain 5 I3P")
1.44
>>> value_reported("chain 5 N4D")
1.4
>>> value_reported("chain 5 N4C")
1.02
>>> value_reported("chain 5 S1T")
1.07
>>> value_reported("chain 5 L8C")
1.06
>>> value_reported("chain 5 I2Q")
1.13
>>> value_reported("chain 5 K7H")
1.63
>>> value_reported("chain 5 S1Q")
1.22
>>> value_reported("chain 5 L8F")
1.09
>>> value_reported("chain 5 S1W")
1.34
>>> value_reported("chain 5 K7N")
1.18
>>> value_reported("chain 5 S1H")
1.26
>>> value_reported("chain 5 K7D")
1.29
>>> value_reported("chain 5 K7R")
0.664
>>> value_reported("chain 5 S1Y")
1.26
>>> value_reported("chain 5 I2N")
1.11
>>> value_reported("chain 5 F5M")
1.31
>>> value_reported("chain 5 F5H")
1.51
>>> value_reported("chain 5 I2Y")
1.54
>>> value_reported("chain 5 N4Q")
1.18
>>> value_reported("chain 5 I2V")
1.18
>>> value_reported("chain 5 I3T")
0.992
>>> value_reported("chain 5 N4Y")
0.936
>>> value_reported("chain 5 F5K")
1.36
>>> value_reported("chain 5 K7P")
1.46
>>> value_reported("chain 5 F5V")
1.42
>>> value_reported("chain 5 K7F")
1.94
>>> value_reported("chain 5 E6D")
1.28
>>> value_reported("chain 5 E6R")
1.34
>>> value_reported("chain 5 K7E")
1.46
>>> value_reported("chain 5 K7Y")
1.22
>>> value_reported("chain 5 K7W")
1.34
>>> value_reported("chain 5 I2M")
0.88
>>> value_reported("chain 5 I2T")
1.56
>>> value_reported("chain 5 E6K")
1.3
>>> value_reported("chain 5 K7S")
0.824
>>> value_reported("chain 5 N4M")
1.09
>>> value_reported("chain 5 L8G")
1.54
>>> value_reported("chain 5 L8I")
1.04
>>> value_reported("chain 5 F5Q")
1.24
>>> value_reported("chain 5 K7V")
1.13
>>> value_reported("chain 5 I2E")
1.41
>>> value_reported("chain 5 N4E")
0.928
>>> value_reported("chain 5 K7M")
1.34
